Reported cAMP Rel EC50 (1% HSA) by item:
Measured on: human glucagon receptor (human) (UniProt P47871)
Sequence (P47871 26-477): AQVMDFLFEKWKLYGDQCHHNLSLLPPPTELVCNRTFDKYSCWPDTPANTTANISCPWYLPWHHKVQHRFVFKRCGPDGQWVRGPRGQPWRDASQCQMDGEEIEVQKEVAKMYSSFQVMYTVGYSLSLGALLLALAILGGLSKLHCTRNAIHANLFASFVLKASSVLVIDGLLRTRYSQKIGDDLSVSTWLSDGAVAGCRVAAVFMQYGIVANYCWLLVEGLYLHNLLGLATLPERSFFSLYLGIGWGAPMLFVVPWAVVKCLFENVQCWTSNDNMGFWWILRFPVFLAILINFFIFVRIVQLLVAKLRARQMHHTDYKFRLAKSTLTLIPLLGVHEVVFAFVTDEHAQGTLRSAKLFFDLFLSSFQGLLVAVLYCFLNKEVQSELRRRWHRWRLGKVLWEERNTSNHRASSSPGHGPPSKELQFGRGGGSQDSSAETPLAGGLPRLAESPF
Test summary: cell-based or functional assay
Starred links: 1 amine or outer side, 2 acyl side, 3 side chain; linkers in the order of their positions; H or OH if unused. Non-standard residues stand in square brackets, D forms with d. Groups on a side chain read outwards from the residue. No end group written: not given here. *: point of attachment. C20 diacid = O=C(O)CCCCCCCCCCCCCCCCCCC(=O)*; αMePhe(2-F) = C[C@](N)(Cc1ccccc1F)C(=O)O; γGlu = O=C(O)[C@H](CCC(=O)[*:2])N[*:1]; αMeL = CC(C)C[C@](C)(N)C(=O)O; Orn = NCCC[C@H](N)C(=O)O; AEEA = NCCOCCOCC(=O)O; Aib = CC(C)(N)C(=O)O

Binder: YXQGTFTSDXSQXLDKKAQXAFIEYLLEAGPSSXAPPPSGT (possibly C-terminal amide; synthetic construct; SITE 2: note = 2-Aminoisobutyric Acid; SITE 10: note = 3-(4-Pyridyl)-L-alanine; SITE 13: note = alpha-methyl-leucine; SITE 17: note = Lysine is chemically modified through conjugation of the epsilon-amino group of the Lysine side chain with (2-[2-(2-Amino-ethoxy)-ethoxy]-acetyl)) [Example 824]
cAMP Rel EC50 (1% HSA): 1110 nM
//
Binder: Y[Aib]QGTFTSDYSI[αMeL]LDKIAAK([AEEA-AEEA-γGlu-C20 diacid])[Orn]FVQYLIAGGPSSGEPPPSEG-NH2 [Example 308]
cAMP Rel EC50 (1% HSA): 4950 nM
//
Binder: YXQGTXTSDXXIXLDXXAQXEFIEXLIEGGPSSGAPPPSGSE (synthetic construct; SITE 2: note = 2-Aminoisobutyric Acid; SITE 6: note = alpha-methyl-2-fluoro-L-phenylalanine; SITE 10: note = 3-(4-Pyridyl)-L-alanine; SITE 11: note = alpha-methyl-L-serine; SITE 13: note = alpha-methyl-leucine; SITE 16: note = L-ornithine; SITE 17: note = Ornithine is chemically) [Example 1212]
cAMP Rel EC50 (1% HSA): 230 nM

Q) Could you tell me which cAMP Rel EC50 (1% HSA) is on file for YXQGTFTSDXSXXLDXKAQXAFIEYLIAGGPSSGAPPPSGSEE (C-terminal amide; lysine acylated with (Glu)2-γ-Glu-C18 diacid; synthetic construct; SITE 2: note = 2-Aminoisobutyric Acid; SITE 10: note = 3-(4-Pyridyl)-L-alanine; SITE 12: note = L-ornithine; SITE 13: note = alpha-methyl-leucine; SITE 16: note = L-ornithine; SITE 17: note = Lysine is chemically modified through conjugation of the epsilon-amino group of the Lys) [Example 1062] ?
A) 2380 nM

Q) # cAMP Rel EC50 (1% HSA) lookup, item YXQGTFTSDXSQXLDXKAQXAFIQXLIEGGPSSGAPPPSGSEEE (Glu-γGlu-C18 diacid on Lys; non-natural residues; amide; synthetic construct; SITE 2: note = 2-Aminoisobutyric Acid; SITE 10: note = 3-(4-Pyridyl)-L-alanine; SITE 13: note = alpha-methyl-leucine; SITE 16: note = L-ornithine; SITE 17: note = Lysine is chemically modified through conjugation of the epsilon-amino group of the Lysine side chain with (Glu)-(ga)) [Example 1077]
A) 3160 nM

Q) Need cAMP Rel EC50 (1% HSA), item YXQGTXTSDXXIXLDXKAQXEFIEXLIEGGPSSGEPPPSGS (not fully specified; synthetic construct; SITE 2: note = 2-Aminoisobutyric Acid; SITE 6: note = alpha-methyl-2-fluoro-L-phenylalanine; SITE 10: note = 3-(4-Pyridyl)-L-alanine; SITE 11: note = alpha-methyl-L-serine; SITE 13: note = alpha-methyl-leucine; SITE 16: note = L-ornithine; SITE 17: note = Lysine is chemically mo) [Example 1208]
A) 451 nM

Q) Which value of cAMP Rel EC50 (1% HSA) has been reported for YXQGTXTSDXSIXLDXKAQXXFIEXLIEGGPSSGEPPPETE (synthetic construct; SITE 2: note = 2-Aminoisobutyric Acid; SITE 6: note = alpha-methyl-2-fluoro-L-phenylalanine; SITE 10: note = 3-(4-Pyridyl)-L-alanine; SITE 13: note = alpha-methyl-leucine; SITE 16: note = L-ornithine; SITE 17: note = Lysine is chemically modified through conjugation of the epsil) [Example 686] in the records?
A) 169 nM

Q) Please look up its cAMP Rel EC50 (1% HSA): YXQGTXTSDXSILLDKKAQXAFIEXLEEGGPSSGAPPPSGEGE (synthetic construct; SITE 2: note = 2-Aminoisobutyric Acid; SITE 6: note = alpha-methyl-2-fluoro-L-phenylalanine; SITE 10: note = 3-(4-Pyridyl)-L-alanine; SITE 17: note = Lysine is chemically modified through conjugation of the epsilon-amino group of the Lysine side chain with (gamma-Glu)2-CO-(CH2)1) [Example 667]
A) 215 nM

Q) Request the reported cAMP Rel EC50 (1% HSA) associated with YXQGTXTSDXXIXLDXKAAXEFIEXLIEGGPSSGAPPPSGX (C-terminal γGlu, amide; synthetic construct; SITE 2: note = 2-Aminoisobutyric Acid; SITE 6: note = alpha-methyl-2-fluoro-L-phenylalanine; SITE 10: note = 3-(4-Pyridyl)-L-alanine; SITE 11: note = alpha-methyl-L-serine; SITE 13: note = alpha-methyl-leucine; SITE 16: note = L-ornithine; SITE 17: note = Lysine is chemically mo) [Example 722]
A) 170 nM

Q) Need cAMP Rel EC50 (1% HSA), item Y[Aib]QGT[αMePhe(2-F)]TSDYSKLLDKIAQKAFIEYLIEGGPSSGEPPPSEG-NH2 (not fully specified (residue 20)) [Example 330]
A) 398 nM

Q) Fill in: cAMP Rel EC50 (1% HSA) of YXQGTFTSDXSKXLDKKAQXAFIEYLIEXGPSSGAPPPSGSE (Aib, 4Pal, αMeL; lipidated Lys; C-terminal amide; synthetic construct; SITE 2: note = 2-Aminoisobutyric Acid; SITE 10: note = 3-(4-Pyridyl)-L-alanine; SITE 13: note = alpha-methyl-leucine; SITE 17: note = Lysine is chemically modified through conjugation of the epsilon-amino group of the Lysine side chain with (gamma-Glu)2-CO-(CH2)16-CO2H; SITE 20:) [Example 904] is ___
A) 1330 nM

Q) What value of cAMP Rel EC50 (1% HSA) has been reported for the following binder? YXQGTFTSDXSQXLDKKAQXQFIEXLIEGGPSSGAPPPSGS (non-natural residues, acylated Lys ((γGlu)2-C18 diacid), C-terminal amide; synthetic construct; SITE 2: note = 2-Aminoisobutyric Acid; SITE 10: note = 3-(4-Pyridyl)-L-alanine; SITE 13: note = alpha-methyl-leucine; SITE 17: note = Lysine is chemically modified through conjugation of the epsilon-amino group of the Lysine side chain with (gamma-Glu)2-CO-(CH2)16-CO2H; SITE 20:) [Example 934]
A) 1380 nM
